# MEASURED_TARGET: human GlxI (Homo sapiens, UniProt Q04760)
# Construct: hGlxI from human erythrocytes
# Sequence (Q04760 2-184 limits assumed): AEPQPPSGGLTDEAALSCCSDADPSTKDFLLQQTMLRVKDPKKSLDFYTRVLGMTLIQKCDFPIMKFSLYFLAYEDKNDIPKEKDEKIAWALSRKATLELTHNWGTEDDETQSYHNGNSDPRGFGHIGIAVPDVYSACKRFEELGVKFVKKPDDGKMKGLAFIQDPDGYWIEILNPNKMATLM
# ASSAY_REMARKS: Irreversible inactivation kinetics of human GlxI
# TEST_CONTEXT: glycerol (20%) in sodium phosphate buffer, pH 7, 25° C.; fit of kobsd vs concentration; read-out: Kd (dissociation constant) for inactivation of human GlxI
MEASURED_PROPERTY: pKd
Note on units: pKd is unitless, being -log10 of a concentration expressed in mol/L.

Provide pKd value for the following compound: N[C@@H](CCC(=O)N[C@@H](CSCC(=O)OCCCCOC(=O)CBr)C(=O)NCC(=O)O)C(=O)O
3.75

====

# MEASURED_TARGET: human GlxI (Homo sapiens)
# Construct: hGlxI from human erythrocytes; from tissue; host or cells: human erythrocytes
# Sequence (Q04760 2-184 limits assumed): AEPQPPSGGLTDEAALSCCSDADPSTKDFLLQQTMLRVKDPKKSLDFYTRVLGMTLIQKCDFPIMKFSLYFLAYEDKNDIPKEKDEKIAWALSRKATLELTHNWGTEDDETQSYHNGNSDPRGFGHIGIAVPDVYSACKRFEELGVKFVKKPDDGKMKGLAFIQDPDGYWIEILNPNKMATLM
# ASSAY_REMARKS: Competitive inhibition constants (Kis) with human GlxI
# Assay type: biochemical
# TEST_CONTEXT: sodium phosphate buffer, 50 mM, pH 7, 25° C.; mean (±S.D.) triplicate; read-out: Ki, hGlxI
MEASURED_PROPERTY: Ki (nM)
// units = nM; emit number, no label

Below, each entry is followed by its recorded Ki result.
COMPOUND	MEASURED_TARGET	QUANTITATIVE_READOUT
NCCC(=O)NC(CCC(=O)NC(CSC(=O)N(O)c1ccc(Cl)cc1)C(=O)NCC(=O)O)C(=O)O (stereo not drawn) [CHG(β-Ala)n, n = 1]	human GlxI (Homo sapiens)	330
O=C(O)CNC(=O)C(CSC(=O)N(O)c1ccc(Cl)cc1)NC(=O)CCC(NC(=O)CCNC(=O)CCNC(=O)CCNC(=O)CCNC(=O)CCNC(=O)CCCCCCC(=O)NCCC(=O)NCCC(=O)NCCC(=O)NCCC(=O)NCCC(=O)NC(CCC(=O)NC(CSC(=O)N(O)c1ccc(Cl)cc1)C(=O)NCC(=O)O)C(=O)O)C(=O)O (stereo not drawn) [[CHG(β-Ala)n]2sub., n = 5, [CHG (β-ala)5]2suberate diamide]	human GlxI (Homo sapiens)	7.5
O=C(O)CNC(=O)C(CSC(=O)N(O)c1ccc(Cl)cc1)NC(=O)CCC(NC(=O)CCNC(=O)CCNC(=O)CCNC(=O)CCCCCCC(=O)NCCC(=O)NCCC(=O)NCCC(=O)NC(CCC(=O)NC(CSC(=O)N(O)c1ccc(Cl)cc1)C(=O)NCC(=O)O)C(=O)O)C(=O)O (stereo not drawn) [[CHG(β-Ala)n]2sub., n = 3, [CHG(β-ala)3]2suberate diamide]	human GlxI (Homo sapiens)	84.1

Specify measured Ki for O=C(O)CNC(=O)C(CSC(=O)N(O)c1ccc(Cl)cc1)NC(=O)CCC(NC(=O)CCNC(=O)CCNC(=O)CCNC(=O)CCNC(=O)CCCCCCC(=O)NCCC(=O)NCCC(=O)NCCC(=O)NCCC(=O)NC(CCC(=O)NC(CSC(=O)N(O)c1ccc(Cl)cc1)C(=O)NCC(=O)O)C(=O)O)C(=O)O (stereo not drawn) [[CHG(β-Ala)n]2sub., n = 4, [CHG (β-ala)4]2suberate diamide] .
59.6

Ref: patent US7700560B2
